- System: Ba/F3-EGFR L861Q+T790M cells
- Protocol: Cell growth inhibitory effect, L861Q+T790M mutant EGFR-expressing Ba/F3 cell line (CellTiter-Glo)
- Format: cell-based, mouse
- Measurement Conditions: Mus musculus, 72 h; Ba/F3 cells with human EGFR L861Q+T790M, no EGF, 3 days; read-out: IC50 (nM) L861Q + T790M
Readout Type: IC50 (nM)
// return numeric value only (unit: nM, not printed)

Query: What does the data say about its IC50? Entry: C=CC(=O)N[C@H]1C=C(C)c2c(-c3cnc4ccccc4c3)c3c(N)ncnc3n2C1
Result: 37.5

###

- Assayed Target: human EGFR G719A (Homo sapiens, UniProt P00533, G719A)
- Sequence (P00533 25-1210 G719A): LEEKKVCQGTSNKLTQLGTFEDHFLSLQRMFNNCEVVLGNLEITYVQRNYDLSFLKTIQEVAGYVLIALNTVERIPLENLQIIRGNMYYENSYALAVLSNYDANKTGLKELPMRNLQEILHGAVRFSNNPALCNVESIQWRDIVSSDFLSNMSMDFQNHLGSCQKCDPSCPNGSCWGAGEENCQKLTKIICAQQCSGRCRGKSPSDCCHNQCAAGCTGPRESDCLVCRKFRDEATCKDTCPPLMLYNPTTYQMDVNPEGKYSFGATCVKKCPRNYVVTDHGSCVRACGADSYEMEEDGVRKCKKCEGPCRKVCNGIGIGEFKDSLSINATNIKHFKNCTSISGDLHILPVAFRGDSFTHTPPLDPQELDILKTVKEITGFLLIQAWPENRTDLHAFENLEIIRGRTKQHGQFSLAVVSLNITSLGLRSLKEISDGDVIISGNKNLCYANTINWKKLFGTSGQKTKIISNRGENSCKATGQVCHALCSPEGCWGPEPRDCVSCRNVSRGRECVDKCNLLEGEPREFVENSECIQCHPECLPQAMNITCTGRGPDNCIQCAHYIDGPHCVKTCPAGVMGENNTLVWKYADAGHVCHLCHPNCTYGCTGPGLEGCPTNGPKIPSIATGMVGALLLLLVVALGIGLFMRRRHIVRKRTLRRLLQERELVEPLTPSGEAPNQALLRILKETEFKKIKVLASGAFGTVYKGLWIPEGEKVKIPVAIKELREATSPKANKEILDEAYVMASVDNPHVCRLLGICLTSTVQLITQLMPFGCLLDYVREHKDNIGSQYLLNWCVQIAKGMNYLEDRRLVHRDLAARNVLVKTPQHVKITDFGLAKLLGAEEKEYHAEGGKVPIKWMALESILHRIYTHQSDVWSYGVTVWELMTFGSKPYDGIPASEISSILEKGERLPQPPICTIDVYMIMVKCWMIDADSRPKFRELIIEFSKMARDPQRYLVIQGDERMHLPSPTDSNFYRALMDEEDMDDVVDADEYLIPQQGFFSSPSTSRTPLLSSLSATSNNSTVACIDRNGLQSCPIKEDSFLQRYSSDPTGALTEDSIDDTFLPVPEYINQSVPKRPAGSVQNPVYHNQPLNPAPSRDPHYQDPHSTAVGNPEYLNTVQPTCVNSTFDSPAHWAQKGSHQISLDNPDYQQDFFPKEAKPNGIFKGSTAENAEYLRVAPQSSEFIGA
- Protocol: Intracellular EGFR phosphorylation in mutant EGFR forced expression system using HEK293 cells
- Measurement Conditions: HEK293 cells expressing human EGFR G719A, 6 hours; read-out: IC50, phosphorylated EGFR inhibition, G719A
Readout Type: pIC50
Just so you know, pIC50 here is -log10 of the concentration in molar units; reply with that number alone.

Query: So what does the record say about pIC50 for C=CC(=O)N[C@H]1C=C(C)c2c(-c3cnc4ccccc4c3)c3c(N)ncnc3n2C1 ?
Result: 4.69
